# target system: κ opiate receptor (Cavia porcellus, UniProt P41144)
# Sequence (P41144 whole entry): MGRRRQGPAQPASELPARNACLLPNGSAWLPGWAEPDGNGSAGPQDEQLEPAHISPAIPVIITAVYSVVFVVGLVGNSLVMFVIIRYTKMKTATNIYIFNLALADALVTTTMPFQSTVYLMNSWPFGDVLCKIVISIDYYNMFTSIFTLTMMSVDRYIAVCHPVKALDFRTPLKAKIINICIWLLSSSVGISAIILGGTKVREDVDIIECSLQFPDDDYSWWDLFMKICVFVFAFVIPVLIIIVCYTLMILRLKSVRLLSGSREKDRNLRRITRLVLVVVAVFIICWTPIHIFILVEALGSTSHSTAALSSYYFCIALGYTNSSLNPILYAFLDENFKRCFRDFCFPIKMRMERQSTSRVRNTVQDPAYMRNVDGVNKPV
# method: κ receptor binding assay, guinea-pig brain membrane, 3H-U69593 displacement
# test settings: read-out: Receptor Binding Assay [Ki in μM] Kappa Receptor
outcome measure: Ki (µM)
The figure you give is taken to be in µM; do not add the unit.

Given YCGFC [Tyr-Cys-Gly-Phe-Cys-NH2] , respond with its Ki. 2.1

----------
# Test system: μ receptors, guinea pig ileum (GPI)
# method: guinea pig ileum (GPI) in vitro functional assay
# test settings: read-out: In Vitro Functional Assay [ED50 in μM] GPI; guinea pig ileum; rhenium-complexed peptides
List of EC50 values.

State its EC50 for this substance: YCGFC [Tyr-Cys-Gly-Phe-Cys-NH2] 0.612 µM

Hello, please tell me recorded EC50 for this one: YAGFC [Tyr-Ala-Gly-Phe-Cys-NH2] > 10 µM

Provide only the value of recorded EC50 for YGGCF [Tyr-Gly-Gly-Cys-Phe-NH2] > 10 µM

Proceed to the following item.
Specify EC50 for YGCF [Tyr-Gly-Cys-Phe-NH2] and stop. > 10 µM

----------
The entries below are paired with their reported GPI observed percent efficacy at 10 μM.
# System: μ receptors, guinea pig ileum (GPI)
# method: guinea pig ileum (GPI) in vitro functional assay
# test settings: 10 μM, value in brackets
No end group written: not given here.
State just the number; it will be interpreted in %.

Below: 3 substances and their reported GPI observed percent efficacy at 10 μM.
Input Lys-Tyr-Cys-OH , output reported GPI observed percent efficacy at 10 μM. 34

For the substance Tyr-Ala-Phe-Cys-OH (YAFC-OH; also: rhenium complex) , give its reported GPI observed percent efficacy at 10 μM. 8

Give me measured GPI observed percent efficacy at 10 μM, please, for this substance: Tyr-Cys-Gly-Cys-NH2 (YCGC-NH2; cysteine pairing not given here; also: rhenium complex) 14

Then this substance:
Determine its reported GPI observed percent efficacy at 10 μM: Tyr-Lys-Cys-OH 41

----------
# MVD observed percent efficacy at 10 μM annotations
# target system: δ receptors, mouse vas deferens (MVD) (Mus musculus)
# Sequence (P32300 whole entry): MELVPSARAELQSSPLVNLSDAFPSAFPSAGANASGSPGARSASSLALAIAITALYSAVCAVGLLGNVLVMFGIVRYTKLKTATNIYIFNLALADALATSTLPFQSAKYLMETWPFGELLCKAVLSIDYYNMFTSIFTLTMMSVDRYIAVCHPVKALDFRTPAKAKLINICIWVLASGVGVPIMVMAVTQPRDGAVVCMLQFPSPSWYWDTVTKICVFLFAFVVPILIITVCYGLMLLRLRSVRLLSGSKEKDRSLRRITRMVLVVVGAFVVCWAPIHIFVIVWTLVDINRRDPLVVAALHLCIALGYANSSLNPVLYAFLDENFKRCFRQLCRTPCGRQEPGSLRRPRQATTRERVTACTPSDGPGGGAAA
# method: mouse vas deferens (MVD) in vitro functional assay
# test settings: 10 μM, value in brackets
Non-standard residues stand in square brackets, D forms with d. No end group written: not given here. hTyr = N[C@@H](CCc1ccc(O)cc1)C(=O)O; Ava = NCCCCC(=O)O; βAla = NCCC(=O)O
# value in %; strip the unit string

Worked set:
Please list MVD observed percent efficacy at 10 μM recorded for the substance HTyr-β-Ala-Gly-Phe-Cys-NH2 ([hTyr][βAla]GFC-NH2; also: rhenium complex) 30

Please give measured MVD observed percent efficacy at 10 μM of the following entry: HTyr-β-Ala-Gly-Phe-D-Cys-NH2 11

Supply MVD observed percent efficacy at 10 μM value. Item: Lys-Tyr-Cys-OH 41

New cases:
Give a short answer stating reported MVD observed percent efficacy at 10 μM for NH2(CH2)4—CO-Phe-Asp-Cys-HTyr-NH2 ([Ava]FDC[hTyr]-NH2; also: rhenium complex) . 20

Return reported MVD observed percent efficacy at 10 μM. Input substance: Tyr-Cys-Gly-Cys-NH2 (YCGC-NH2; cysteine pairing not given here; also: rhenium complex) 34

Supply MVD observed percent efficacy at 10 μM value. Item: Tyr-Lys-Cys-OH 48

Retrieve MVD observed percent efficacy at 10 μM measured for Tyr-Ala-Phe-Cys-OH (YAFC-OH; also: rhenium complex) and print it. 48

Look up MVD observed percent efficacy at 10 μM of Tyr-β-Ala-Gly-Phe-Cys-NH2 (Y[βAla]GFC-NH2; also: rhenium complex) and report it. 22

These entries and their values trace back to patent US6979436B2.
